Provenance of the data: patent US9200001B2

Listed here: compounds with reported Ki for UniProtKB Q9Y233.
Sequence (Q9Y233 267-1055): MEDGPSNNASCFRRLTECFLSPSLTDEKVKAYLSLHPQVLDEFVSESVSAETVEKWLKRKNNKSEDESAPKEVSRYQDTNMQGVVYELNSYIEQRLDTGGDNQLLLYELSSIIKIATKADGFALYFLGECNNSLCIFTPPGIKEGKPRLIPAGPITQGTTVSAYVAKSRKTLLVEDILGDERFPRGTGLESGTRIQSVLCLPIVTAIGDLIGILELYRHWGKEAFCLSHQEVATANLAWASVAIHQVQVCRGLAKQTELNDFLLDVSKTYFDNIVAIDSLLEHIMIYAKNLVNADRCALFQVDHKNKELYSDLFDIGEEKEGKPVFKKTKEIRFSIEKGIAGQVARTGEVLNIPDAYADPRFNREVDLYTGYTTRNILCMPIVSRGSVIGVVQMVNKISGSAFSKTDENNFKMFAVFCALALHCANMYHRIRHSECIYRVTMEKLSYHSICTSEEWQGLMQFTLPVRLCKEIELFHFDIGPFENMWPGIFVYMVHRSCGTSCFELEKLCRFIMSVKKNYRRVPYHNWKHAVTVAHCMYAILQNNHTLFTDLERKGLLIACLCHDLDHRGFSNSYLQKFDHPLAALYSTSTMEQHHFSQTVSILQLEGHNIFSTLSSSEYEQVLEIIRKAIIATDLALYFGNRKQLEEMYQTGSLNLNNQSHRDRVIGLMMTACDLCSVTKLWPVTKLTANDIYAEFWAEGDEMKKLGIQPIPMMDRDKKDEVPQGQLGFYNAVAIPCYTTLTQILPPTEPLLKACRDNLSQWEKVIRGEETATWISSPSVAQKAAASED
readout kind: Ki (nM)

compound	value
COc1ccc(Cc2nc(C)nn2-c2cc(/C=C/c3ccc(C)cn3)nc(C)n2)cc1OC	0.11
Cc1nc([C@H]2C[C@@H]2c2nc3ccccc3n2C)cc(-n2nc(C)nc2-c2cccnc2)n1 (stereo in doubt)	12.8
COc1ncc(Cc2nc(C)nn2-c2cc(CCc3ccc4ccccc4n3)nc(C)n2)nc1OC	0.056
Cc1nc(C)n(-c2cc([C@H]3C[C@@H]3c3nc4ccccc4n3C)nc(N3CCN(C)CC3)n2)n1 (relative stereo)	3.1
